Reference source for all entries: patent US20200057058A1

system.tested: T1, streptavidin (UniProt P22629 37-163, limits assumed)
T1 construct: It was used without a stated label in the sandwich assays; also called SA
test.method.notes: fluorescent binding curve, labeled SA in 50% urine, 4 h; quadratic fit
parameter.measured: [P]T (total concentration of binding sites) (nM)
Write the value in nM as a bare number.

Below, each entry is followed by its recorded [P]T (total concentration of binding sites) result.
[
  {
    "binder": "3xSP30.3k thin film (3x rcSso7d.SA-PNIPAM conjugate, PNIPAM Mn 30.3 kDa) (designed binder, maleimide end-functionalized PNIPAM (Mn 30.3 kDa) on the N-terminal Cys; film lightly crosslinked with glutaraldehyde) MGSSHHHHHHSSGLVPRGSHMCATVKFTYQGEEKQVDISKIKIVARDGQYIDFKYDEGGGAYGYGWVSEKDAPKELLQMLEKQGGGGSGGGGSMATVKFTYQGEEKQVDISKIKIVARDGQYIDFKYDEGGGAYGYGWVSEKDAPKELLQMLEKQGGGGSGGGGSMATVKFTYQGEEKQVDISKIKIVARDGQYIDFKYDEGGGAYGYGWVSEKDAPKELLQMLEKQGG",
    "observed": 0.27
  },
  {
    "binder": "3xSP77.6k thin film (3x rcSso7d.SA-PNIPAM conjugate, PNIPAM Mn 77.6 kDa) (designed binder, maleimide end-functionalized PNIPAM (Mn 77.6 kDa) on the N-terminal Cys; film lightly crosslinked with glutaraldehyde) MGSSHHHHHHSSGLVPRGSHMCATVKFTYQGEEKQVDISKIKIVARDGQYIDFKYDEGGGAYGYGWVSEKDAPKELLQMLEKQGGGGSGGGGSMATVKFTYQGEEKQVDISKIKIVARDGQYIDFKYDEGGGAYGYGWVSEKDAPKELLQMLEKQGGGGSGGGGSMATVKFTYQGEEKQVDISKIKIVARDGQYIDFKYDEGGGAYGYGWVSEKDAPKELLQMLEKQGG",
    "observed": 0.3
  }
]

Req: Any idea what its [P]T (total concentration of binding sites) is? The binder is rcSso7d.SA monolayer (designed binder, EDC/NHS-activated protein coupled to an amine-functionalized silicon wafer, also called monomeric rcSso7d.SA; surface-immobilized rcSso7d.SA) MGSIHHHHHHSSGLVPRGSHMCATVKFTYQGEEKQVDISKIKIVARDGQYIDFKYDEGGGAYGYGWVSEKDAPKELLQMLEKQ
Resp: 0.29

Req: Consider next the binder 3xSP9.6k thin film (3x rcSso7d.SA-PNIPAM conjugate, PNIPAM Mn 9.6 kDa) (designed binder, maleimide end-functionalized PNIPAM (Mn 9.6 kDa) on the N-terminal Cys; film lightly crosslinked with glutaraldehyde) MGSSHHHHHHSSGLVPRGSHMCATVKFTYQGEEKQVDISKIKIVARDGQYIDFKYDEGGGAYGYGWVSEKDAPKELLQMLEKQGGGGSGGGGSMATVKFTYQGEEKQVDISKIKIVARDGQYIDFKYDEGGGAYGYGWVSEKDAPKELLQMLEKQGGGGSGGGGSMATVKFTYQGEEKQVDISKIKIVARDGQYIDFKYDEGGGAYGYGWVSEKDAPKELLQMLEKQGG in the same way.
Resp: 0.26
